# Tested system: Cyclin-dependent kinase 2 (Homo sapiens, UniProt P24941)
Parameter measured: pIC50
Lab note: report pIC50 as minus log10 of the concentration in molar units, number only.

INSERT INTO assay_data (compound, parameter_measured, meas_value) VALUES
  ('NS(=O)(=O)c1ccc(NN=C2C(=O)Nc3ccc(S(N)(=O)=O)cc32)cc1', 'pIC50', 7.37),
  ('NS(=O)(=O)c1ccc(NC=C2C(=O)Nc3ccc4ncsc4c32)cc1 [GW589933X]', 'pIC50', 8.55),
  ('NS(=O)(=O)c1ccc(N/C=C2\C(=O)Nc3cc(CO)ccc32)cc1', 'pIC50', 7.21),
  ('CCOc1cccc2c1C(=NNc1ccc(S(N)(=O)=O)cc1)C(=O)N2', 'pIC50', 7.03),
  ('NS(=O)(=O)c1ccc(N/C=C2\C(=O)Nc3cccc(CO)c32)cc1', 'pIC50', 7.27);

Then this compound:
Look up pIC50: `CCc1ccc2c(c1)NC(=O)C2=NNc1ccc(S(N)(=O)=O)cc1`
7.68

----------
Cyclin-dependent kinase 1 (Homo sapiens, UniProt P06493) IC50 data
Sequence (P06493 whole entry): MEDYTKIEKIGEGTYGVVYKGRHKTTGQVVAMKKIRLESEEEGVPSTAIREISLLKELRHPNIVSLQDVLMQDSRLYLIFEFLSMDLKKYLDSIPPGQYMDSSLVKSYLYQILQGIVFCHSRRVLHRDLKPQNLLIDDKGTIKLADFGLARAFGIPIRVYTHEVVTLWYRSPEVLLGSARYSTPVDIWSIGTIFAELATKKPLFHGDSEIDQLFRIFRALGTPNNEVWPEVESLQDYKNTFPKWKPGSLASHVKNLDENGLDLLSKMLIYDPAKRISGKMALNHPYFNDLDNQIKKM

INSERT INTO measurements (compound, meas_value) VALUES
  ('CS(=O)(=O)c1ccc(N/C=C2\C(=O)Nc3ccc4ncsc4c32)cc1', '0.039 µM'),
  ('NS(=O)(=O)c1ccc(N/C=C2\C(=O)Nc3cccc(CO)c32)cc1', '1.7 µM'),
  ('NS(=O)(=O)c1ccc(NN=C2C(=O)Nc3ccc(S(=O)(=O)O)cc32)cc1', '0.13 µM'),
  ('CC(C)(CO)CNC(=O)c1ccc2c(c1)C(=NNc1ccc(S(N)(=O)=O)cc1)C(=O)N2 [GW301784X]', '0.06 µM'),
  ('NS(=O)(=O)c1ccc(NN=C2C(=O)Nc3cccc([N+](=O)[O-])c32)cc1', '> 1 µM'),
  ('NS(=O)(=O)c1ccc(N/N=C2\C(=O)Nc3ccc4ncccc4c32)cc1 [GW305178X]', '0.012 µM'),
  ('NS(=O)(=O)c1ccc(NC=C2C(=O)Nc3ccc4ncsc4c32)cc1 [GW589933X]', '0.029 µM'),
  ('NS(=O)(=O)c1ccc(NN=C2C(=O)Nc3cccc(-c4cc[nH]n4)c32)cc1', '0.25 µM'),
  ('CN(C)c1ccc2c(c1)/C(=C/Nc1ccc(S(N)(=O)=O)cc1)C(=O)N2 [GW416469X]', '2.8 µM'),
  ('COC(=O)c1ccc2c(c1)/C(=C/Nc1ccc(S(N)(=O)=O)cc1)C(=O)N2', '0.012 µM');

Which IC50 is reported with Cyclin-dependent kinase 1 (Homo sapiens, UniProt P06493) for this entry: `NS(=O)(=O)c1ccc(NN=C2C(=O)Nc3ccc(I)cc32)cc1` ?
0.095 µM

Which IC50 is reported with Cyclin-dependent kinase 1 (Homo sapiens, UniProt P06493) for this entry: NS(=O)(=O)c1ccc(N/N=C2\C(=O)Nc3ccc(-c4cnco4)cc32)cc1 [GW276655X] ?
0.01 µM

Which IC50 is reported with Cyclin-dependent kinase 1 (Homo sapiens, UniProt P06493) for this entry: `Cc1c([N+](=O)[O-])ccc2c1C(=NNc1ccc(S(N)(=O)=O)cc1)C(=O)N2` ?
0.087 µM

----------
# Tested system: Cyclin-dependent kinase 1 (Homo sapiens, UniProt P06493)
Listed compounds paired with reported log10 of IC50
Short version: log10 scale, IC50, nM.

Solved cases (5 shown):
INSERT INTO results (compound, tested_system, meas_value) VALUES
  ('NS(=O)(=O)c1ccc(N/N=C2\C(=O)Nc3ccc4ncsc4c32)cc1', 'Cyclin-dependent kinase 1 (Homo sapiens, UniProt P06493)', 1.63),
  ('CN(c1ccccn1)S(=O)(=O)c1ccc(N/C=C2\C(=O)Nc3ccc4ncsc4c32)cc1', 'Cyclin-dependent kinase 1 (Homo sapiens, UniProt P06493)', 1.81),
  ('NS(=O)(=O)c1ccc(NN=C2C(=O)Nc3ccc(C(=O)NCc4cccnc4)cc32)cc1', 'Cyclin-dependent kinase 1 (Homo sapiens, UniProt P06493)', 1.71),
  ('COc1ccc2c(c1Cl)C(=NNc1ccc(S(N)(=O)=O)cc1)C(=O)N2', 'Cyclin-dependent kinase 1 (Homo sapiens, UniProt P06493)', 3.23),
  ('NS(=O)(=O)c1ccc(N/N=C2\C(=O)Nc3ccccc32)cc1', 'Cyclin-dependent kinase 1 (Homo sapiens, UniProt P06493)', 3.11);

Which log10 of IC50 is reported with Cyclin-dependent kinase 1 (Homo sapiens, UniProt P06493) for this entry: NS(=O)(=O)c1ccc(NN=C2C(=O)Nc3ccc(C(=O)NCCCn4ccnc4)cc32)cc1 [GW290597X] ?
2.36

Which log10 of IC50 is reported with Cyclin-dependent kinase 1 (Homo sapiens, UniProt P06493) for this entry: `C/C(Nc1ccc(S(N)(=O)=O)cc1)=C1/C(=O)Nc2ccc(Cl)cc21` ?
2.34

Which log10 of IC50 is reported with Cyclin-dependent kinase 1 (Homo sapiens, UniProt P06493) for this entry: `CCc1cccc2c1C(=NNc1ccc(S(N)(=O)=O)cc1)C(=O)N2` ?
1.66

Which log10 of IC50 is reported with Cyclin-dependent kinase 1 (Homo sapiens, UniProt P06493) for this entry: `NS(=O)(=O)c1ccc(NN=C2C(=O)Nc3ccc4[nH]ncc4c32)cc1` ?
2.08

Which log10 of IC50 is reported with Cyclin-dependent kinase 1 (Homo sapiens, UniProt P06493) for this entry: `CS(=O)(=O)c1ccc2c(c1)C(=NNc1ccc(S(N)(=O)=O)cc1)C(=O)N2` ?
2.54

Which log10 of IC50 is reported with Cyclin-dependent kinase 1 (Homo sapiens, UniProt P06493) for this entry: `CNS(=O)(=O)c1ccc(N/C=C2\C(=O)Nc3ccc4ncsc4c32)cc1` ?
1.81

Which log10 of IC50 is reported with Cyclin-dependent kinase 1 (Homo sapiens, UniProt P06493) for this entry: `Cc1ccc2c(c1Cl)C(=NNc1ccc(S(N)(=O)=O)cc1)C(=O)N2` ?
2.40

Which log10 of IC50 is reported with Cyclin-dependent kinase 1 (Homo sapiens, UniProt P06493) for this entry: `NS(=O)(=O)c1ccc(N/C=C2\C(=O)Nc3cc(CO)ccc32)cc1` ?
2.87

Which log10 of IC50 is reported with Cyclin-dependent kinase 1 (Homo sapiens, UniProt P06493) for this entry: `COc1cccc(OC)c1CNC(=O)c1ccc2c(c1)C(=NNc1ccc(S(N)(=O)=O)cc1)C(=O)N2` ?
0.97

Which log10 of IC50 is reported with Cyclin-dependent kinase 1 (Homo sapiens, UniProt P06493) for this entry: `O=C1Nc2ccc3ncsc3c2/C1=C/Nc1ccc(S(=O)(=O)NCCOCCO)cc1` ?
1.08

Which log10 of IC50 is reported with Cyclin-dependent kinase 1 (Homo sapiens, UniProt P06493) for this entry: `O=C1Nc2ccc3ncsc3c2/C1=C/Nc1ccc(S(=O)(=O)N[n+]2ccc3ccccc3c2)cc1` ?
1.62

Which log10 of IC50 is reported with Cyclin-dependent kinase 1 (Homo sapiens, UniProt P06493) for this entry: CC(C)COC(=O)c1ccc2c(c1)/C(=C/Nc1ccc(S(N)(=O)=O)cc1)C(=O)N2 [GW416981X] ?
1.28

----------
Cyclin-dependent kinase 2 (Homo sapiens) IC50 data
Form entry: value (nM) — number only.

Solved cases (8 shown):
INSERT INTO results (compound, tested_system, unit_string, meas_value) VALUES
  ('O=C1Nc2ccc3ncsc3c2/C1=C/Nc1ccc(S(=O)(=O)NCCOCCO)cc1', 'Cyclin-dependent kinase 2 (Homo sapiens)', 'nM', 0.54),
  ('NS(=O)(=O)c1ccc(NN=C2C(=O)Nc3cccc(-c4cc[nH]n4)c32)cc1', 'Cyclin-dependent kinase 2 (Homo sapiens)', 'nM', 19),
  ('NS(=O)(=O)c1ccc(NN=C2C(=O)Nc3ccc4[nH]ncc4c32)cc1', 'Cyclin-dependent kinase 2 (Homo sapiens)', 'nM', 13),
  ('NS(=O)(=O)c1ccc(NN=C2C(=O)Nc3ccc4[nH]nc(Cl)c4c32)cc1', 'Cyclin-dependent kinase 2 (Homo sapiens)', 'nM', 2.2),
  ('CN(C)CCNS(=O)(=O)c1ccc(N/C=C2\C(=O)Nc3ccccc32)cc1', 'Cyclin-dependent kinase 2 (Homo sapiens)', 'nM', 1000),
  ('NS(=O)(=O)c1ccc(N/N=C2\C(=O)Nc3ccc4ncccc4c32)cc1 [GW305178X]', 'Cyclin-dependent kinase 2 (Homo sapiens)', 'nM', 1.6),
  ('NS(=O)(=O)c1ccc(N/C=C2\C(=O)Nc3ccc(C(=O)O)cc32)cc1', 'Cyclin-dependent kinase 2 (Homo sapiens)', 'nM', 28),
  ('NS(=O)(=O)c1ccc(NN=C2C(=O)Nc3cc(Br)ccc32)cc1', 'Cyclin-dependent kinase 2 (Homo sapiens)', 'nM', 43);

Which IC50 is reported with Cyclin-dependent kinase 2 (Homo sapiens) for this entry: `O=C1Nc2ccc(-c3cnco3)cc2/C1=C/Nc1ccc2c(c1)CS(=O)(=O)C2` ?
8.9

Which IC50 is reported with Cyclin-dependent kinase 2 (Homo sapiens) for this entry: `NS(=O)(=O)c1ccc(NN=C2C(=O)Nc3cccc(CCc4ccncc4)c32)cc1` ?
21

Which IC50 is reported with Cyclin-dependent kinase 2 (Homo sapiens) for this entry: `NS(=O)(=O)c1ccc(NN=C2C(=O)Nc3ccc(O)cc32)cc1` ?
10
